# Target Of Assay: Cytochrome P450 2C19 (Homo sapiens) (UniProt P33261)
# Sequence (P33261 whole entry, looked up): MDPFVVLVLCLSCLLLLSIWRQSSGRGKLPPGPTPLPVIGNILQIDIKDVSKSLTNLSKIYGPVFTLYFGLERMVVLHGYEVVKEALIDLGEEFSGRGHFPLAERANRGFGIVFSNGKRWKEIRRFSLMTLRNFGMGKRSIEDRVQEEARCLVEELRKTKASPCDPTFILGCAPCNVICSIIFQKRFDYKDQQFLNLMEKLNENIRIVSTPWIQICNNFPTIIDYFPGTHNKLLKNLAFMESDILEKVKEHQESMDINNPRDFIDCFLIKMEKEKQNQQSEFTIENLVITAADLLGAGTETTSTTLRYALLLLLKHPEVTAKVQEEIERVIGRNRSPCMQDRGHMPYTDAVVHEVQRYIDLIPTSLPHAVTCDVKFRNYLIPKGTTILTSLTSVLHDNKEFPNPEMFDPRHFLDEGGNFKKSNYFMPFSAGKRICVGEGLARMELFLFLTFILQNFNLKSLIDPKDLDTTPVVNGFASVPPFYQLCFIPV
# Experiment Description: Cytochrome P450 Family 2 Subfamily C Member 19 (CYP2C19) small molecule antagonists: luciferase reporter qHTS assay (AID 1671197); further: nearly all actives have a fitted effect of over 65% in size
# Settings: P450-Glo CYP2C19 enzyme, luciferin luminescence, 1 h; series mostly up to 115 µM
# Text: National Center for Advancing Translational Sciences [NCATS] U.S. Environmental Protection Agency [EPA] National Institutes of Environmental Health Sciences [NIEHS] National Toxicology Program [NTP] U.S. Food and Drug Administration [FDA] Cytochrome P450 (CYP) enzymes are membrane-bound hemeproteins that play a key role in metabolism of drugs and xenobiotics. […] The luciferin products formed are detected with a luciferin detection reagent, and the amount of light produced is proportional to CYP activity. […]
Inconclusive results are not listed. Activity calls are given as the source filed them. The call rests on the fitted dose curve; in most records, active means well fitted inhibition curve with a large enough effect in the repeat runs; inconclusive means weak or mixed curves; inactive means no such curve, though single readings can be large or run the other way.
Classes used: active, inactive

- Molecule: "Cc1nc([N+](=O)[O-])cn1-c1ccc([N+](=O)[O-])cc1"
  Label: "inactive"
- Molecule: "N#CCCOCCOCCC#N"
  Label: "inactive"
- Molecule: "COc1ccc(/C=N/NC(=O)c2ccncc2)cc1OC"
  Label: "active"
- Molecule: "C=C(C)C(=O)OC1CC(C)CC(C)(C)C1 (centres undefined)"
  Label: "inactive"
- Molecule: "Nc1ccc(S(=O)(=O)Nc2ccccn2)cc1"
  Label: "inactive"
- Molecule: "CC(=O)Nc1ncc([N+](=O)[O-])s1"
  Label: "inactive"
- Molecule: "NC(=O)NC(=O)Cc1ccccc1"
  Label: "inactive"
- Molecule: "C=COCCOCCOC=C"
  Label: "inactive"
- Molecule: "COC(/C=C(\\C)CCC=C(C)C)OC"
  Label: "inactive"
- Molecule: "F[Si-2](F)(F)(F)(F)F"
  Label: "inactive"
- Molecule: "CCCCCCCCCCCCOC(C)=O"
  Label: "inactive"
- Molecule: "CNC(=O)C(c1ccccc1)c1ccccc1"
  Label: "active"
- Molecule: "COc1ccc(N=Nc2cc(C)c(N=Nc3ccc(S(=O)(=O)O)cc3)cc2OC)cc1"
  Label: "inactive"
- Molecule: "CCCCCCCCCCCCC"
  Label: "inactive"

----------
# Target Of Assay: Luciferin 4-monooxygenase (Photinus pyralis) (UniProt P08659)
# Sequence (P08659 whole entry, looked up): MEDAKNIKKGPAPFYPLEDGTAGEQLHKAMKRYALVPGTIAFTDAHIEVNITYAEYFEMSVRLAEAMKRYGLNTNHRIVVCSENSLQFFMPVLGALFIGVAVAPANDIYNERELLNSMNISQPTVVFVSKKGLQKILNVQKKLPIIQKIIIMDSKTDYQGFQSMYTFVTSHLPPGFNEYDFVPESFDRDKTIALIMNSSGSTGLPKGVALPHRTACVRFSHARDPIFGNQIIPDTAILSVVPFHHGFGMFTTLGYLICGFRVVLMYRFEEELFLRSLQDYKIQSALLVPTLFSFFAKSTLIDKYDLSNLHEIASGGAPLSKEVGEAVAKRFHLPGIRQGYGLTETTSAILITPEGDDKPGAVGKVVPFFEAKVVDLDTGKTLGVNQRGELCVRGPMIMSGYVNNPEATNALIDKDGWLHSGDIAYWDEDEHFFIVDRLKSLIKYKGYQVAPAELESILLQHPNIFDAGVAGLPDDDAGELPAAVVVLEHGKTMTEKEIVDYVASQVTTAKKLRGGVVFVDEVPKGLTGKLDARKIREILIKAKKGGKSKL
# Experiment Description: qHTS assay to identify small molecule inhibitors of firefly luciferase (AID 1224835); further: nearly all actives have a fitted effect of over 25% in size
# Settings: purified P. pyralis luciferase, luminescence inhibition; series mostly up to 115 µM
Results filed as inconclusive are left out. Activity calls are given as the source filed them. Calls come from the whole dose curve; as a rule, active = well fitted inhibition curve with a large enough effect in the repeat runs; inconclusive = weak or mixed curves; inactive = flat fitted curve, though single readings scatter.
Assay Readout: outcome

- Smiles Structure: "CCCCCC(=O)OCC"
  Reported Value: "inactive"
- Smiles Structure: "Cc1c(C(C)C)c(=O)n(-c2ccccc2)n1C"
  Reported Value: "inactive"
- Smiles Structure: "O=C(O)CCNC(=O)c1ccccc1"
  Reported Value: "inactive"

----------
# Experiment Description: qHTS assay to identify small molecule antagonists of the estrogen receptor alpha (ER-alpha) signaling pathway using the BG1 cell line (AID 743080);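 further: BG1 cells stimulated with 17beta-estradiol alongside compound; nearly all actives have a fitted effect of over 25% in size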
# Settings: BG1Luc4E2 ERE-luciferase antagonist mode, luminescence; series mostly up to 70.3 µM
Records with an inconclusive call do not appear. Activity calls are given as the source filed them. Calls come from the whole dose curve.
Assay Readout: outcome

- Compound: "CCCOC(=O)CCCCC(=O)OCCC"
  Reported Value: "inactive"
- Compound: "NC(=O)C1(N2CCCCC2)CCN(CCCC(=O)c2ccc(F)cc2)CC1"
  Reported Value: "inactive"
- Compound: "O=C(Oc1ccccc1C(=O)O)c1ccccc1O"
  Reported Value: "inactive"
- Compound: "Cc1cc(O)c2c(c1)C(=O)c1cccc(O)c1C2=O"
  Reported Value: "inactive"
- Compound: "COc1ccc(/C=N/NC(=O)c2ccncc2)cc1OC"
  Reported Value: "inactive"
- Compound: "CO[Si](CCCS)(OC)OC"
  Reported Value: "inactive"
- Compound: "O=C1OC(=O)c2ccccc21"
  Reported Value: "inactive"
- Compound: "CCCCC(CC)COC(=O)c1ccccc1 (centres undefined)"
  Reported Value: "inactive"
- Compound: "Cc1c(C(C)C)c(=O)n(-c2ccccc2)n1C"
  Reported Value: "inactive"
- Compound: "CC(C)(C)NCCO"
  Reported Value: "inactive"
- Compound: "CCC(CO)CO"
  Reported Value: "inactive"
- Compound: "CC(C)(CO)[C@@H](O)C(=O)NCCCO"
  Reported Value: "inactive"
- Compound: "CCCCCCCCC(=O)OCC"
  Reported Value: "inactive"
- Compound: "CC(C)COC(=O)CC(C(=O)OCC(C)C)S(=O)(=O)O (centres undefined)"
  Reported Value: "inactive"

Where these numbers come from: PubChem BioAssay (Tox21)
